Tgt: cloned human V1a receptor (Homo sapiens, UniProt P37288)
Construct: host or cells: human brain astrocytoma 1321N1 cells
Sequence (P37288 whole entry): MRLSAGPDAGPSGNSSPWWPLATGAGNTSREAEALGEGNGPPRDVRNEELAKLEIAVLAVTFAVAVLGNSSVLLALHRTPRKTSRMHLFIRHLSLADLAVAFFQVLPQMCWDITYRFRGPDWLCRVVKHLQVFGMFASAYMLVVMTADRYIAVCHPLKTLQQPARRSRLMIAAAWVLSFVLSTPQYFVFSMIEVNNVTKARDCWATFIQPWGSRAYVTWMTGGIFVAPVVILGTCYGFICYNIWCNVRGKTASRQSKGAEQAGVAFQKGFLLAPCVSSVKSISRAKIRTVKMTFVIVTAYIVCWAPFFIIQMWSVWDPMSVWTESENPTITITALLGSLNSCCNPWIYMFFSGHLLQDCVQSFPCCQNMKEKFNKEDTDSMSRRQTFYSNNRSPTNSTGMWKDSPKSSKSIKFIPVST
Experiment description: in vitro functional calcium mobilisation assay (FLIPR), antagonist activity, 1321N1 cells, 250 pM AVP
Assay type: cell-based
Experimental conditions: functional pKi derived from pIC50 (Equation 1), FLIPR Ca2+ mobilisation, 1321N1 cells expressing cloned human V1a receptor, read-out: Mean fpKi (Human V1a) (converted)
Readings of Ki for the listed compounds
Metric name: Ki

[[record]]
compound = "O=C(C1CCN(c2ccc(C(F)(F)F)cc2)CC1)N1Cc2cccn2Cc2ccccc21 [Example 169]"
result = "30.9 nM"

[[record]]
compound = "O=C(C1CCN(c2ccccc2)CC1)N1Cc2cccn2Cc2ccccc21 [Example 149]"
result = "0.589 nM"

[[record]]
compound = "Cc1ccc(N2CCC(C(=O)N3CCc4nc(N5CCOCC5)[nH]c4-c4cc(F)ccc43)CC2)nc1 [Example 16]"
result = "2.95 nM"

[[record]]
compound = "O=C(C1CCN(c2ccccn2)CC1)N1CCc2nc(N3CCCCC3)[nH]c2-c2cc(Cl)ccc21 [Example 50]"
result = "24.5 nM"

[[record]]
compound = "Cc1ccc2c(c1)-c1[nH]c(N3CCOCC3)nc1CCN2C(=O)C1CCN(c2ccccn2)CC1 [Example 31]"
result = "3.8 nM"

[[record]]
compound = "Cc1ccc2c(c1)Nc1c(cnn1C)CN2C(=O)C1CCN(c2ccc(C(F)(F)F)cc2)CC1 [Example 133]"
result = "5.37 nM"

[[record]]
compound = "Cc1ccnc(N2CCC(C(=O)N3CCc4nc(N5CCOCC5)[nH]c4-c4cc(C)ccc43)CC2)c1 [Example 32]"
result = "1.58 nM"

[[record]]
compound = "Cc1nc2c([nH]1)-c1cc(Cl)ccc1N(C(=O)C1CCN(c3cccc(F)c3)CC1)CC2 [Example 84]"
result = "38 nM"

[[record]]
compound = "CCc1nc2c([nH]1)-c1cc(C)ccc1N(C(=O)C1CCN(c3cc(C)ccn3)CC1)CC2 [Example 19]"
result = "2.34 nM"

[[record]]
compound = "Cc1ccc2c(c1)-c1[nH]c(N3CCOCC3)nc1CCN2C(=O)C1CCN(c2cccnc2C)CC1 [Example 71]"
result = "16.6 nM"

[[record]]
compound = "CCCc1nc2c([nH]1)-c1cc(Cl)ccc1N(C(=O)C1CCN(c3ccccn3)CC1)CC2 [Example 47]"
result = "11.7 nM"

[[record]]
compound = "Cc1ccnc(N2CCC(C(=O)N3CCc4nc(N5CCOCC5)[nH]c4-c4cc(F)ccc43)CC2)c1 [Example 15]"
result = "1.95 nM"

[[record]]
compound = "COc1cccnc1N1CCC(C(=O)N2CCc3nc(C4CCOCC4)[nH]c3-c3cc(C)ccc32)CC1 [Example 40]"
result = "1.26 nM"

[[record]]
compound = "O=C(C1CCN(c2ccccc2)CC1)N1CCc2nc(-c3cccc(F)c3)[nH]c2-c2cc(Cl)ccc21 [Example 81]"
result = "93.3 nM"

[[record]]
compound = "COc1cccc(N2CCC(C(=O)N3Cc4cnn(C)c4Nc4cc(Cl)ccc43)CC2)c1 [Example 137]"
result = "1.78 nM"

[[record]]
compound = "COc1cccnc1N1CCC(C(=O)N2Cc3cnn(C)c3Nc3cc(C)ccc32)CC1 [Example 113]"
result = "30.2 nM"

[[record]]
compound = "O=C(C1CCN(c2ccccc2)CC1)N1CCc2nc(N3CCCCC3)[nH]c2-c2cc(Cl)ccc21 [Example 77]"
result = "18.2 nM"

[[record]]
compound = "Cc1ccc2c(c1)Nc1c(cnn1C)CN2C(=O)C1CCN(c2ccccc2F)CC1 [Example 127]"
result = "2 nM"

[[record]]
compound = "CCc1ccc(N2CCC(C(=O)N3Cc4cnn(C)c4Nc4cc(Cl)ccc43)CC2)cc1 [Example 139]"
result = "0.912 nM"

